Biological target: human insulin receptor (HIR) (human, UniProt P06213)
Test: competition
Non-standard residues stand in square brackets, D forms with d. No end group written: not given here. Tic = O=C(O)[C@@H]1Cc2ccccc2CN1; Ac6c = NC1(C(=O)O)CCCCC1
Binning rule for recorded Kd: bin 0: < 0.6 nM; bin 1: ≥ 0.6 nM and < 100 nM; bin 2: ≥ 100 nM

Qu. Sort [Ac6c]CLEE[dW]GASL[Tic]QCSG (not fully specified (bridges); printed as Acy-CLEEwGASL-Tic-QCSG; cysteine pairing not given here) [S256] into one of the categories.
Ans. bin 2

Qu. Sort SLEEEWAQVECEVYGRGCPPGLLDESFYHWFDRQLR [S553] into one of the categories.
Ans. bin 0

Qu. Sort S360 (listing feature) chain 1: XDWLQRNANFYDWFVAEL chain 2: XDWLQRNANFYDWFVAEL into one of the categories.
Ans. bin 2

Qu. Sort S301 (listing feature) chain 1: XDWLQRNANFYDWFVAEL chain 2: XDWLQRNANFYDWFVAEL into one of the categories.
Ans. bin 2

Qu. Sort CGFHENFYDWFVRQVSKK (not fully specified; ends and bridges not checked) [S171] into one of the categories.
Ans. bin 2

Qu. Sort SLEEEWAQIEEVWGRGPSESFYDWFERQLG [S569] into one of the categories.
Ans. bin 0

Qu. Sort WGRSFYRYFETLLAQGI [S261] into one of the categories.
Ans. bin 2

Qu. Sort GRVDWLQRNANFYDWFV [S251] into one of the categories.
Ans. bin 2

Qu. Sort SIEEEWAQIKCDVWGRGCPPGLLDESFYHWFDRQLR [S520] into one of the categories.
Ans. bin 0

Qu. Sort SIEEEWAQIKCDVWGRGCPSY [S593] into one of the categories.
Ans. bin 1

Qu. Sort SLEEEWAWVECEVYGRGCPSGSLDESFYDWFERQL [S532] into one of the categories.
Ans. bin 0

Qu. Sort SIEEEWAQIKCDVWGRGCSESFYDWFERQL [S556] into one of the categories.
Ans. bin 0

Qu. Sort SLEEEWAQIECEVWGRGCPKGFYGWFRRRG [S582] into one of the categories.
Ans. bin 1

Qu. Sort HPTSKEIYAKLLK [S122] into one of the categories.
Ans. bin 1

Qu. Sort TGHRLGLDEQFYWWFRDALSG [S265] into one of the categories.
Ans. bin 2

Qu. Sort LEEEWAQIQREVWHSPASESFYDWFERQL [S595] into one of the categories.
Ans. bin 1

Qu. Sort S439 (peptide) chain 1: ESFYDWFERQLGGGGK chain 2: QEWAWVQCEVYGRGCPS into one of the categories.
Ans. bin 1

These data points were gathered from patent US20110124556.
